System: pyruvate dehydrogenase enzyme (PDH)
Test: Proportion of active pyruvate dehydrogenase (PDHa/PDHt) in hearts of fat-fed rats after dosing
Type: in vivo, rat
Settings: 0.6 mMol/kg., subcutaneous injection, heart, after 1.5 hours
Experimental: Rats fed on a high fat diet as in the previous test, are treated either with placebo or with the compound of formula (I) or (II) by subcutaneous or intravenous injection or by oral administration. […] The total amount of enzyme present (PDHt) and the amount which is present in the active form (PDHa) are assessed by a method similar to that described by Taylor et al. [J. Biol. Chem., 248, 73 (1973)]. […]
Counter-ions that a name gives are not always drawn.
Assignment: determine reported PDHa/PDHt ratio for the given molecules.

[[record]]
molecule = "O=C(O)C(=O)c1ccc(Cc2ccccc2)[nH]1"
property = "PDHa/PDHt ratio"
obs_value = 0.16

[[record]]
molecule = "NC(=O)C(N)c1ccc(CC2CC2)[nH]1 (racemic)"
property = "PDHa/PDHt ratio"
obs_value = 0.27


Give PDHa/PDHt ratio for all molecules that follow.
1. CCCc1ccc(C(=O)C(=O)O)[nH]1
2. CCc1ccc(C(N)C(=O)O)[nH]1 (racemic)

1: 0.66; 2: 0.16

Give PDHa/PDHt ratio for all molecules that follow.
1. O=C(O)C(=O)c1ccc(CC2CC2)[nH]1 [Example 21, Sodium Salt]
2. CCCCCc1ccc(C(=O)C(=O)O)[nH]1
3. CC(C)Cc1ccc(C(=O)C(=O)O)[nH]1

[0.71, 0.13, 0.45]
